molecular target: PPAR-gamma (UniProt P37231); assay: Transient transfection transactivation assay in CV-1 cells, GAL4-PPAR-gamma chimera, luciferase reporter; details: 20-24 hours treatment
pEC50: −log10 of the molar value.
Parameter: pEC50. Scope: all listed entries.

Challenge: For CCN(CCNS(=O)(=O)c1cc(C)cc(CC(=O)O)c1)Cc1ccc(OC(F)(F)F)cc1 [Example 5] , what is its reported pEC50?
Response given: > 5.30

Challenge: For CCCc1c(OCCN(C)S(=O)(=O)c2ccc3c(c2)CC(C(=O)O)C3)ccc(C(C)=O)c1O (stereo not shown) [Example 13] , what is its reported pEC50?
Response given: 4.00 to 5.30

Challenge: For CN(CCON=C(c1ccc(OC(F)(F)F)cc1)c1ccc(OC(F)(F)F)cc1)S(=O)(=O)c1cccc2c1CC(C(=O)O)C2 (stereo not shown) [Example 19] , what is its reported pEC50?
Response given: > 5.30

Challenge: For CCN(CCNS(=O)(=O)c1cccc2c1CC(C(=O)O)C2)Cc1ccc(OC(F)(F)F)cc1 (stereo not shown) [Example 8] , what is its reported pEC50?
Response given: > 5.30

###

biological target: PPAR-delta (UniProt Q03181); experiment: Transient transfection transactivation assay in CV-1 cells, GAL4-PPAR-delta chimera, luciferase reporter; details: 20-24 hours treatment
PROPERTY NAME: EC50

Worked set:
Challenge: Form field: EC50 recorded for Cc1ccc(C(=NOCCN(C)S(=O)(=O)c2cccc3c2CC(C(=O)O)C3)c2ccc(C)cc2)cc1 (stereo not drawn) with PPAR-delta (UniProt Q03181) (enter value)
Response given: < 5 µM

Challenge: Form field: EC50 recorded for CCCc1c(OCCN(C)S(=O)(=O)c2cccc3c2CC(C(=O)O)C3)ccc(C(C)=O)c1O (stereo not drawn) with PPAR-delta (UniProt Q03181) (enter value)
Response given: < 5 µM

Next compound, please.
Challenge: Form field: EC50 recorded for CCCc1c(OCCNS(=O)(=O)c2ccc3c(c2)CC(C(=O)O)C3)ccc(C(C)=O)c1O (stereo not drawn) with PPAR-delta (UniProt Q03181) (enter value)
Response given: 5 to 100 µM

###

molecular target: PPAR-alpha (UniProt Q07869); test: Transient transfection transactivation assay in CV-1 cells, GAL4-PPAR-alpha chimera, luciferase reporter; conditions: 20-24 hours treatment
pEC50: −log10 of the molar value.
Parameter: pEC50. Scope: all listed entries.

Challenge: For CCCc1c(OCCN(C)S(=O)(=O)c2cccc3c2CC(C(=O)O)C3)ccc2c(C(F)(F)F)noc12 (stereo not shown) , what is its reported pEC50?
Response given: > 5.30

Challenge: For CCCc1c(OCCN(C)S(=O)(=O)c2ccc3c(c2)CC(C(=O)O)C3)ccc(C(C)=O)c1O (stereo not shown) , what is its reported pEC50?
Response given: < 4.00

Challenge: For `CCCCN(CCNS(=O)(=O)c1cc(C)cc(CC(=O)O)c1)Cc1ccc(OC(F)(F)F)cc1` , what is its reported pEC50?
Response given: > 5.30

Challenge: For CCN(CCNS(=O)(=O)c1cccc2c1CC(C(=O)O)C2)Cc1ccc(OC(F)(F)F)cc1 (stereo not shown) , what is its reported pEC50?
Response given: > 5.30

Challenge: For CCCCCN(CCNS(=O)(=O)c1cccc2c1CC(C(=O)O)C2)Cc1ccc(OC(F)(F)F)cc1 (stereo not shown) , what is its reported pEC50?
Response given: > 5.30

Challenge: For CCCCN(CCNS(=O)(=O)c1cccc2c1CC(C(=O)O)C2)Cc1ccc(OC(F)(F)F)cc1 (stereo not shown) , what is its reported pEC50?
Response given: > 5.30

Challenge: For `CCc1cnc(N(CCNS(=O)(=O)c2cc(C)cc(CC(=O)O)c2)Cc2ccc(OC(F)(F)F)cc2)nc1` , what is its reported pEC50?
Response given: > 5.30

Challenge: For CCc1cnc(N(CCNS(=O)(=O)c2cccc3c2CC(C(=O)O)C3)Cc2ccc(OC(F)(F)F)cc2)nc1 (stereo not shown) , what is its reported pEC50?
Response given: > 5.30

Challenge: For `Cc1ccc(S(=O)(=O)N(C)CCON=C(c2ccc(C(F)(F)F)cc2)c2ccc(C(F)(F)F)cc2)cc1CC(=O)O` , what is its reported pEC50?
Response given: > 5.30

Challenge: For Cc1ccc(C(=NOCCN(C)S(=O)(=O)c2cccc3c2CC(C(=O)O)C3)c2ccc(C)cc2)cc1 (stereo not shown) , what is its reported pEC50?
Response given: < 4.00

Challenge: For CCCc1c(OCCNS(=O)(=O)c2ccc3c(c2)CC(C(=O)O)C3)ccc(C(C)=O)c1O (stereo not shown) , what is its reported pEC50?
Response given: 4.00 to 5.30

Challenge: For CCCc1c(OCCN(C)S(=O)(=O)c2cccc3c2CC(C(=O)O)C3)ccc(C(C)=O)c1O (stereo not shown) , what is its reported pEC50?
Response given: < 4.00

Challenge: For `CCN(CCNS(=O)(=O)c1cc(C)cc(CC(=O)O)c1)Cc1ccc(OC(F)(F)F)cc1` , what is its reported pEC50?
Response given: 4.00 to 5.30

Challenge: For CCCc1c(OCCNS(=O)(=O)c2cccc3c2CC(C(=O)O)C3)ccc(C(C)=O)c1O (stereo not shown) , what is its reported pEC50?
Response given: < 4.00

Challenge: For `Cc1ccc(C(=NOCCN(C)S(=O)(=O)c2ccc(C)c(CC(=O)O)c2)c2ccc(C)cc2)cc1` , what is its reported pEC50?
Response given: > 5.30

Challenge: For CN(CCON=C(c1ccc(OC(F)(F)F)cc1)c1ccc(OC(F)(F)F)cc1)S(=O)(=O)c1cccc2c1CC(C(=O)O)C2 (stereo not shown) , what is its reported pEC50?
Response given: < 4.00

Challenge: For CN(CCON=C(c1ccc(C(F)(F)F)cc1)c1ccc(C(F)(F)F)cc1)S(=O)(=O)c1cccc2c1CC(C(=O)O)C2 (stereo not shown) , what is its reported pEC50?
Response given: < 4.00

Challenge: For CCCc1c(OCCN(C)S(=O)(=O)c2ccc3c(c2)C(C(=O)O)CC3)ccc(C(C)=O)c1O (stereo not shown) , what is its reported pEC50?
Response given: > 5.30

Challenge: For `CCCCCN(CCNS(=O)(=O)c1cc(C)cc(CC(=O)O)c1)Cc1ccc(OC(F)(F)F)cc1` , what is its reported pEC50?
Response given: > 5.30
